B1: ANKRD40 (parent)
chain: VCCCELGVNPDQVEKIRKLPNTLL

variants of: B1; experiment: protein stability index of a GFP-peptide fusion (GPS, HEK-293T) (PSI 1-6); higher = more stable; details: c terminus: a fixed tail appended;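 note: lentivirally expressed fusions sorted by FACS into six bins by GFP to DsRed ratio, PSI derived from sequencing read proportions per bin multiplied by bin number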
Each entry below lists one item and its recorded protein stability index value.
Simply state the number, no unit and no words.

Some variants with recorded protein stability index:
What does the data say about its protein stability index? Entry: D11Y
2.55

What does the data say about its protein stability index? Entry: Q12V
2.24

What does the data say about its protein stability index? Entry: V13K
2.25

What does the data say about its protein stability index? Entry: N21F
1.95

What does the data say about its protein stability index? Entry: T22H
1.8

New cases:
What does the data say about its protein stability index? Entry: Q12M
2.03

What does the data say about its protein stability index? Entry: I16N
3.14

What does the data say about its protein stability index? Entry: P20T
2.2
